Value source: ChEMBL document CHEMBL3232782

Would you kindly list MIC for each of these compounds?
- System: Mycobacterium tuberculosis variant bovis
- test-name: Antimycobacterial activity against Mycobacterium bovis AN5 expressing luciferase assessed as growth inhibition after 6 days by luminometry
- Type: functional
- applied-conditions: AN5, 144 h
Numbers only, in µM.

Requested field: MIC. Item: `NNC(=O)c1ccncc1`
0.08

Requested field: MIC. Item: CCOC(=O)C1CCc2ncc3c(c2C1)C(=O)C1=C(C3=O)C2CCC1C2 (centres undefined)
0.09

Requested field: MIC. Item: CCOC(=O)C1CCc2ncc3c(c2C1)C(=O)C1=C(C3=O)C2CCC1CC2 (centres undefined)
0.57

Now examine the next entry.
Requested field: MIC. Item: CC(C)(C)C1CCc2ncc3c(c2C1)C(=O)C1=C(C3=O)C2CCC1C2 (centres undefined)
0.78
